Reported pEC50 values for a set of compounds
Target: human TLR7 (Homo sapiens)
Sequence (Q9NYK1 27-1049): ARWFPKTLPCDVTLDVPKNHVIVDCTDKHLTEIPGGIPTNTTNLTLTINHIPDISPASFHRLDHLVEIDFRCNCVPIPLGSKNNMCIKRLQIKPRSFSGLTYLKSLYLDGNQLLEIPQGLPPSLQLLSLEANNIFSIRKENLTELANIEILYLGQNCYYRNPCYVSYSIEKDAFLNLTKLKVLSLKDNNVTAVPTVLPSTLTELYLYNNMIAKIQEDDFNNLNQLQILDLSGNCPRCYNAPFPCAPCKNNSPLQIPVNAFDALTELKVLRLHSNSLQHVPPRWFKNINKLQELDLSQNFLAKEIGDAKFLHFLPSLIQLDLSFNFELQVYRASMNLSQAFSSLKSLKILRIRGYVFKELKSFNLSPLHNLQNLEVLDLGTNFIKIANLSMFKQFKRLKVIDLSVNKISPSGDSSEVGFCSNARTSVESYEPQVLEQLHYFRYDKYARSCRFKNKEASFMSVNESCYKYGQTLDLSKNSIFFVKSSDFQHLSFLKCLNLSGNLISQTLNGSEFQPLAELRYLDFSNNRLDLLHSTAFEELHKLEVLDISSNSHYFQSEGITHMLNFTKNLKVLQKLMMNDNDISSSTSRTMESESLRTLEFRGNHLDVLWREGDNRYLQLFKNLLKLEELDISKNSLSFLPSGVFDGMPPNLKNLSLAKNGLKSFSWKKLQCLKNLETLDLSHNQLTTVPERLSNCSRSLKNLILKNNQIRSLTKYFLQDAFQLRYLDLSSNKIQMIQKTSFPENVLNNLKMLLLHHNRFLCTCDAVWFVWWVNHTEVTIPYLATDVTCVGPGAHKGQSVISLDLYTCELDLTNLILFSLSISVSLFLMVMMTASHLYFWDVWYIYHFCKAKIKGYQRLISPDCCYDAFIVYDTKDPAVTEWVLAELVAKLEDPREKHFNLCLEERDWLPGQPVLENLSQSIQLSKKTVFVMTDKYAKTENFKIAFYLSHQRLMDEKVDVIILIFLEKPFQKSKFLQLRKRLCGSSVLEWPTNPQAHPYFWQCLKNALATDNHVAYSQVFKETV
Assay: TLR7 reporter cell assay (HEK293 cells stably expressing human TLR7 with NF-κB-driven SEAP reporter)
Conditions: fit of SEAP dose response; ymax from 28.5 μM resiquimod; 15-24 hours
pEC50: −log10 of the molar value.

Compound	Qualifier Symbol	pEC50
C#CCn1c(=O)n([C@@H]2O[C@H]([C@@H](O)CC)C[C@H]2O)c2nc(N)[nH]c(=O)c21 [Compound 1]	=	3.99
CC[C@H](O)[C@H]1O[C@@H](n2c(=O)n(CCC(F)(F)F)c3c(=O)[nH]c(N)nc32)[C@H](O)[C@H]1F [Compound 27]	=	3.47
C#CCn1c(=O)n([C@@H]2O[C@H]([C@@H](O)C(F)(F)F)C[C@H]2O)c2nc(N)[nH]c(=O)c21 [Compound 10]	=	3.51
C#CCn1c(=O)n([C@@H]2O[C@H]([C@H](O)CC)[C@H](F)[C@H]2O)c2nc(N)[nH]c(=O)c21 [Compound 12]	<	3.30
CCCCn1c(=O)n([C@@H]2O[C@H]([C@@H](O)CC)[C@H](F)[C@H]2O)c2nc(N)[nH]c(=O)c21 [Compound 30]	=	4.03
CC[C@H](O)[C@@H]1C[C@@H](O)[C@H](n2c(=O)n(CC3CC3)c3c(=O)[nH]c(N)nc32)O1 [Compound 4]	=	3.88

====

Measured EC50 values are reported for all entries that follow.
molecular target: UniProt:Q9NYK1; assay: TLR7 reporter cell assay (HEK293 cells stably expressing human TLR7 with NF-κB-driven SEAP reporter); conditions: fit of SEAP dose response; ymax from 28.5 μM resiquimod; 15-24 hours
Recorded Metric: EC50 (µM)

Compound	Readout Units	Qualifier Symbol	Reported
CC[C@H](O)[C@H]1O[C@@H](n2c(=O)n(CCSC)c3c(=O)[nH]c(N)nc32)[C@H](O)[C@H]1F	µM	>	500
C#CCn1c(=O)n([C@@H]2O[C@H]([C@H](C)O)C[C@H]2O)c2nc(N)[nH]c(=O)c21	µM	=	182
CC[C@H](O)[C@@H]1C[C@@H](O)[C@H](n2c(=O)sc3c(=O)[nH]c(N)nc32)O1 [Compound A, reference compound]	µM	=	51
CC[C@H](O)[C@@H]1C[C@@H](O)[C@H](n2c(=O)n(CCSC)c3c(=O)[nH]c(N)nc32)O1	µM	=	224

====

Target: human TLR7 (Homo sapiens, UniProt Q9NYK1)
Construct: host or cells: HEK293
Sequence (Q9NYK1 27-1049): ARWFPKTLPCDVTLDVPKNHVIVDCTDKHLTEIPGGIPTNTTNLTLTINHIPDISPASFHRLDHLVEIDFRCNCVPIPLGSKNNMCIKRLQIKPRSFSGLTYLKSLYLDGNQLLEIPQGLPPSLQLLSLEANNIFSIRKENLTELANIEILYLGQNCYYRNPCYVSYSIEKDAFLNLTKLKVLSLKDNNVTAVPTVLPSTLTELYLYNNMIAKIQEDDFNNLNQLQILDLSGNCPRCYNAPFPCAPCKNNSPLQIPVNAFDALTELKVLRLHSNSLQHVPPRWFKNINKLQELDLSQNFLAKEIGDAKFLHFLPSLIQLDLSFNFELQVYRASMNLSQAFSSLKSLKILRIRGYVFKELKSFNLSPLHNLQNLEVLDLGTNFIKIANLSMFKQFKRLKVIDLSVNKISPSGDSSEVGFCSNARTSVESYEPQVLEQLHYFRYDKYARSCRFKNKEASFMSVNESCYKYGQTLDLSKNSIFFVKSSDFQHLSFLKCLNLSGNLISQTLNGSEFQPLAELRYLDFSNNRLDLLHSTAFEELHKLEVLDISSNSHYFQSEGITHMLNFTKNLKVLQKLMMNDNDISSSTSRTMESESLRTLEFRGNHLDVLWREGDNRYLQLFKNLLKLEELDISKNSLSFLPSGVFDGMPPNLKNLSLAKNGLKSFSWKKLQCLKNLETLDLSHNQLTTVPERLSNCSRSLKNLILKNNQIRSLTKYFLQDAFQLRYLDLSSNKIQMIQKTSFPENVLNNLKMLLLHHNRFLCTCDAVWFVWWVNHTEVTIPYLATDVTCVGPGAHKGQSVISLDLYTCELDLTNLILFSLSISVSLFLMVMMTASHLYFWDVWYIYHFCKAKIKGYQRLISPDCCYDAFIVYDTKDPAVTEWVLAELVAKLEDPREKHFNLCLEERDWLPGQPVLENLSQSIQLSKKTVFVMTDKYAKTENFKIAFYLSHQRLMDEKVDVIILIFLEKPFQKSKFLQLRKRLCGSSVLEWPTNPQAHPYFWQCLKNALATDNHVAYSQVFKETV
Experiment: TLR7 reporter cell assay (HEK293 cells stably expressing human TLR7 with NF-κB-driven SEAP reporter)
Type: cell-based
Settings: HEK293; 500 μM compound; SEAP activity (OD 650 nm) relative to 28.5 μM resiquimod; 15-24 hours; read-out: Response at 500 μM Compound as a Percent of Resiquimod Response
From the text: The engagement of TLRs by cognate ligands triggers downstream signaling cascades, leading to the activation of NF-κB and other transcription factors which initiate various immunomodulatory effects. The human embryonic kidney cell line, HEK293, is essentially non-responsive to TLR agonists, but ectopic expression of TLRs in these cells allows cognate agonists to activate endogenous NF-κB. Accordingly, the HEK293-TLR-NF-κB inducible reporter system is used to assay TLR agonists. […]
The label depends only on Emax at 500 µM: Fulfilled if it is at least 80%, Not fulfilled if it is smaller.

Compound	Classification
CC[C@H](O)[C@H]1O[C@@H](n2c(=O)n(CCC(F)(F)F)c3c(=O)[nH]c(N)nc32)[C@H](O)[C@H]1F [Compound 27]	Not fulfilled
CC[C@H](O)[C@H]1O[C@@H](n2c(=O)n(CC(F)(F)F)c3c(=O)[nH]c(N)nc32)[C@H](O)[C@H]1F [Compound 44]	Fulfilled
C#CCn1c(=O)n([C@@H]2O[C@H]([C@@H](O)CC)[C@H](F)[C@H]2O)c2nc(N)[nH]c(=O)c21 [Compound 13]	Fulfilled
C#CCn1c(=O)n([C@@H]2O[C@H]([C@H](O)CF)C[C@H]2O)c2nc(N)[nH]c(=O)c21 [Compound 23]	Not fulfilled
C#CCn1c(=O)n([C@@H]2O[C@H]([C@@H](O)CF)C[C@H]2O)c2nc(N)[nH]c(=O)c21 [Compound 24]	Not fulfilled
CC[C@H](O)[C@H]1O[C@@H](n2c(=O)n(CC3CC3)c3c(=O)[nH]c(N)nc32)[C@H](O)[C@H]1F [Compound 17]	Not fulfilled
CCCn1c(=O)n([C@@H]2O[C@H]([C@@H](O)CC)[C@H](F)[C@H]2O)c2nc(N)[nH]c(=O)c21 [Compound 26]	Not fulfilled
C#CCn1c(=O)n([C@@H]2O[C@H](C(=O)NC)C[C@H]2O)c2nc(N)[nH]c(=O)c21 [Compound 42]	Not fulfilled
CCCn1c(=O)n([C@@H]2O[C@H]([C@@H](O)C(F)(F)F)C[C@H]2O)c2nc(N)[nH]c(=O)c21 [Compound 25]	Not fulfilled
C#CCn1c(=O)n([C@@H]2O[C@H]([C@@H](O)CC)C[C@H]2O)c2nc(N)[nH]c(=O)c21 [Compound 1]	Not fulfilled
C#CCn1c(=O)n([C@@H]2O[C@H]([C@@H](O)CSC)C[C@H]2O)c2nc(N)[nH]c(=O)c21 [Compound 45]	Not fulfilled
C#CCn1c(=O)n([C@@H]2O[C@H](C(C)(C)O)[C@H](F)[C@H]2O)c2nc(N)[nH]c(=O)c21 [Compound 19]	Not fulfilled
C#CCn1c(=O)n([C@@H]2O[C@H]([C@@H](O)CNC)C[C@H]2O)c2nc(N)[nH]c(=O)c21 [Compound 16]	Not fulfilled
CC[C@H](O)[C@@H]1C[C@@H](O)[C@H](n2c(=O)n(CCSC)c3c(=O)[nH]c(N)nc32)O1 [Compound 22]	Not fulfilled
C#CCn1c(=O)n([C@@H]2O[C@H]([C@@H](O)CO)C[C@H]2O)c2nc(N)[nH]c(=O)c21 [Compound 14]	Not fulfilled
C#CC[C@H](O)[C@@H]1C[C@@H](O)[C@H](n2c(=O)n(CC#C)c3c(=O)[nH]c(N)nc32)O1 [Compound 35]	Fulfilled
C#CCn1c(=O)n([C@@H]2O[C@H]([C@H](C)O)C[C@H]2O)c2nc(N)[nH]c(=O)c21 [Compound 9]	Not fulfilled
CCCCn1c(=O)n([C@@H]2O[C@H]([C@@H](O)CC)[C@H](F)[C@H]2O)c2nc(N)[nH]c(=O)c21 [Compound 30]	Fulfilled
C=C=Cn1c(=O)n([C@@H]2O[C@H]([C@@H](O)CC)C[C@H]2O)c2nc(N)[nH]c(=O)c21 [Compound 8]	Not fulfilled

Where these numbers come from: patent US12187759B2
